# ASSAY: NCI Yeast Anticancer Drug Screen. Data for the mlh1 strain (AID 171);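 note: 0% = growth of vehicle-treated control cultures of the same strain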
# RUN PARAMETERS: S. cerevisiae mlh1 strain growth inhibition; at 11.0 µM
The panel holds about 79,000 compounds, 15% with a hit somewhere; the sample as a whole holds those more often. Active and inactive are the calls of the source. Cut-off read from the data, not from the text of the source: active = growth inhibition above about 70%; inactive = the rest.
Possible outcomes: active, inactive

molecule=c1ccc(N=c2nc(N3CCOCC3)ss2)cc1 qualitative_label=active
molecule="CC1CN1C1=C(Cl)C(=O)C(N2CC2C)=C(Cl)C1=O (stereo unspecified)" qualitative_label=inactive
molecule="COC(=O)c1c(C)ccc2c(O)c3c(cc12)C(=O)c1c2c(cc(O)c1C3=O)C1(C)OC(C)(O2)C(O)C(N(C)C)C1O (stereo unspecified)" qualitative_label=inactive
molecule=CCN(CCCl)CCCCNc1c2ccccc2nc2ccc(OC)cc12 qualitative_label=inactive
molecule=Nc1ccccc1C(=O)OCCc1ccccc1 qualitative_label=inactive
molecule="O=C(O)C1C2c3ccccc3C(c3ccccc32)C1C(=O)O (stereo unspecified)" qualitative_label=inactive
molecule="CCCCCCCCCCCCCCCCP(=O)(O)OCC(N)C(=O)O (stereo unspecified)" qualitative_label=inactive
molecule=S=C1NC2(CCCCC2)NC12CCCCC2 qualitative_label=inactive
molecule="CC1=C[C@H]2O[C@@H]3C[C@H]4OC(=O)/C=C\\C=C\\C(C(C)O)OCC(O)C(C)CC(=O)OC[C@@]2(C[C@@H]1O)[C@]4(C)[C@@]31CO1 (stereo partly specified)" qualitative_label=active
molecule="CNC(=O)OCC1C2=C(C(=O)C(C)=C(N)C2=O)N2CC3C(N3C)C12OC (stereo unspecified)" qualitative_label=inactive
molecule="COC1CC(CC2CCC(C)C(C(C)C(=O)O)O2)OC2(OC(C)(C3CCC(C)(C4OC(C5OC(O)(CO)C(C)CC5C)CC4C)O3)CC2C)C1C (stereo unspecified)" qualitative_label=inactive

---

# ASSAY: NCI Yeast Anticancer Drug Screen. Data for the rad50 strain (AID 155);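 note: 0% = growth of vehicle-only cultures of the same strain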
# RUN PARAMETERS: S. cerevisiae rad50 strain growth inhibition; at 100.0 µM; hits give high values
# Protocol: Growth inhibition of yeast strains with defined genetic alterations is measured as a screen for potential anti-cancer activity. Selected strains with alterations in DNA damage repair or cell cycle control were exposed to compounds and growth inhibition was measured relative to vehicle treated controls. The strain used in this assay is rad50
The panel holds about 79,000 compounds, 15% with a hit somewhere; the sample as a whole holds those more often.
Overview of recorded growth inhibition for various compounds
ENDPOINT LABEL: growth inhibition (%)

compound="CC(Cc1ccccc1)N(C)Cc1nc(C2CCC([N+](=O)[O-])O2)no1 (centres undefined)" endpoint_label="growth inhibition" number=81
compound="CCCCCCCCCCCCCCCCP(=O)(O)OCC(N)C(=O)O (centres undefined)" endpoint_label="growth inhibition" number=96
compound="CC1CC(Br)C(=O)O1 (centres undefined)" endpoint_label="growth inhibition" number=89
compound=Cn1cc(NC(=O)c2cc(NC(=O)CN=C(N)N)cn2C)cc1C(=O)NCCC(=N)N endpoint_label="growth inhibition" number=97
compound="COc1cc([C@@H]2c3cc4c(cc3C[C@@H]3COC(=O)C32)OCO4)cc(OC)c1O (some centres undefined)" endpoint_label="growth inhibition" number=97
compound=Nc1nc(-c2ccccc2)c(-c2ccccc2)[se]1 endpoint_label="growth inhibition" number=32
compound=BrCC[N+]12CC[N+](CCBr)(CC1)C2 endpoint_label="growth inhibition" number=93
compound=CS(=O)(=O)OCCN(CCOS(C)(=O)=O)c1ccc(C=O)cc1 endpoint_label="growth inhibition" number=92
compound="C[N+](C)(C)CC1CCCC(C[N+](C)(C)C)C1=O (centres undefined)" endpoint_label="growth inhibition" number=99

---

# ASSAY: NCI Yeast Anticancer Drug Screen. Data for the rad50 strain (AID 155);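 note: 0% = growth of vehicle-only cultures of the same strain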
# RUN PARAMETERS: S. cerevisiae rad50 strain growth inhibition; at 5.0 µM (retest, dose inferred, filed as 0.5); hits give high values
About 79,000 compounds went through this panel and 15% of them were active in at least one assay; those are over-represented in the sample as a whole.
As shown below, each of these compounds has a reported growth inhibition value.
ENDPOINT LABEL: growth inhibition (%)

compound="CCC(C)N1CN(c2ccccc2)C2(CCN(CCCC3(c4ccc(F)cc4)OCCO3)CC2)C1=O (stereo not given)" endpoint_label="growth inhibition" number=-9
compound="O=C1C2CC(Cl)C(SSC3CC4C(=O)N(SC(Cl)(Cl)C(Cl)Cl)C(=O)C4CC3Cl)CC2C(=O)N1SC(Cl)(Cl)C(Cl)Cl (stereo not given)" endpoint_label="growth inhibition" number=98
compound=COc1cc(C(c2c(O)c3ccccc3oc2=O)c2c(O)c3ccccc3oc2=O)cc(OC)c1O endpoint_label="growth inhibition" number=4
compound=O=Cc1ccc(C(F)(F)F)cc1.[C-]#[O+].[C-]#[O+].[C-]#[O+].[Cr] endpoint_label="growth inhibition" number=3
compound=CCCCCCCCCCCCCCCCCC(=O)[O][Hg][c]1ccccc1 endpoint_label="growth inhibition" number=33

---

# ASSAY: NCI Yeast Anticancer Drug Screen. Data for the bub3 strain (AID 167)
# RUN PARAMETERS: S. cerevisiae bub3 mutant strain, at 50.0 µM, hits give high values
About 79,000 compounds went through this panel and 15% of them were active in at least one assay; those are over-represented in the sample as a whole.
Binary classification by growth inhibition, with 90% as an inclusive lower bound for yes (1); all other cases are no (0).

molecule=N=P(c1ccccc1)(c1ccccc1)c1ccccc1.[O]=[Cr](=[O])([OH])[O][Cr](=[O])(=[O])[OH] qualitative_label="no (0)"
molecule=C[n+]1c(/C=C/c2ccc(O)c3ncccc23)[se]c2ccccc21 qualitative_label="yes (1)"
molecule=Clc1ccc(CCN2CCOCC2)c(Cl)c1 qualitative_label="no (0)"
molecule=COc1ccc(OC)c(/C=C/[N+](=O)[O-])c1 qualitative_label="yes (1)"
molecule=CCOC(=O)c1ccccc1N qualitative_label="no (0)"
molecule=O=[N+]([O-])c1ccc(C=Cc2ccccc2)cc1.[C-]#[O+].[C-]#[O+].[C-]#[O+].[Cr] qualitative_label="no (0)"
molecule=[Pt].c1ccc(P(CCP(c2ccccc2)c2ccccc2)CCP(c2ccccc2)c2ccccc2)cc1 qualitative_label="no (0)"
molecule="CC12CCC(C1)C(C)(C)C2OC(=O)c1ccccc1N (stereo unspecified)" qualitative_label="no (0)"
molecule=[O-][n+]1onc2ccccc21 qualitative_label="no (0)"
molecule=C[CH2][Sn][CH2]C.c1cc[c]([Ge]([c]2ccccc2)[c]2ccccc2)cc1.c1cc[c]([Sn]([c]2ccccc2)[c]2ccccc2)cc1 qualitative_label="yes (1)"
molecule=FC(F)(F)c1nc2ccc(SSc3ccc4nc(C(F)(F)F)[nH]c4c3)cc2[nH]1 qualitative_label="yes (1)"
molecule=CNC(=O)N1CN(c2ccccc2)C2(CCN(CCCC(=O)c3ccc(F)cc3)CC2)C1=O qualitative_label="no (0)"
molecule=O=C1C(Br)=CC2(C=C1Br)CCNc1c(O)c3c4c(c12)=NCCC=4C=N3 qualitative_label="no (0)"
molecule=CC(C)=[CH][Sb]([Br])([CH]=C(C)C)([CH]=C(C)C)[CH]=C(C)C qualitative_label="no (0)"
molecule="COC([CH2][Hg][n]1cnc2c1c(=O)n(C)c(=O)n2C)CN1C(=O)c2ccccc2S1(=O)=O (stereo unspecified)" qualitative_label="yes (1)"
molecule=O=C(CI)NCc1ccccc1 qualitative_label="yes (1)"
molecule=c1cc[c]([Pb]([c]2ccccc2)[c]2ccccc2)cc1.c1cc[c]([Pb]([c]2ccccc2)[c]2ccccc2)cc1 qualitative_label="yes (1)"
molecule="CC(C)=CC1CC(C)C2(CCC3(C)CC4C(C(=O)CC4(C)O)/C(C=O)=C\\CC32)O1 (stereo unspecified)" qualitative_label="yes (1)"
molecule="C/C=C(\\C)C(=O)OC1C(C)=C2C(C1OC(=O)CCCCC)C(C)(OC(C)=O)CC(OC(=O)CCC)C1(O)C2OC(=O)C1(C)O (stereo unspecified)" qualitative_label="no (0)"
molecule=COc1ccc2c3c(c4cc(OC)c(OC)cc4c2c1)C[C@H]1CCCCN1C3 qualitative_label="yes (1)"
molecule=Fc1ccc(NP(=S)(Nc2ccc(F)cc2F)Nc2ccc(F)cc2F)c(F)c1 qualitative_label="yes (1)"
molecule="C[n+]1[se]nc2cc(C(=O)c3ccccc3)ccc21 (tested in a mixture with another compound)" qualitative_label="yes (1)"
molecule=CCCCCCCCCC[Se]C#N qualitative_label="yes (1)"
molecule="COC1OC(COC(C)=O)C(OC(C)=O)C(OC(C)=O)[CH]1[Hg][I] (stereo unspecified)" qualitative_label="yes (1)"
molecule=CCOC(=O)NC(=S)[S][Sb]([S]C(=S)NC(=O)OCC)[S]c1nc2ccc(N=Nc3ccc(NS(=O)(=O)c4ccc(NC(=O)C(N5CC5)(N5CC5)N5CC5)cc4)cc3)cc2s1 qualitative_label="yes (1)"
molecule=Clc1ccc(-c2cc(=[N+]3CC[N+](=c4cc(-c5ccc(Cl)cc5)ss4)CC3)ss2)cc1 qualitative_label="yes (1)"
molecule=C[n+]1ccccc1-c1nc(-c2cccc[n+]2C)nc(-c2cccc[n+]2C)n1 qualitative_label="no (0)"
molecule="CC(Br)CN1CCOCC1 (stereo unspecified)" qualitative_label="no (0)"
molecule=CN(C)CCN(C)P12(Oc3ccccc3O1)Oc1c(Cl)c(Cl)c(Cl)c(Cl)c1O2 qualitative_label="yes (1)"
molecule="NC(Cc1c[nH]c2ccccc12)P(=O)(O)O (stereo unspecified)" qualitative_label="no (0)"
molecule="COC(=O)CC1(C(=O)O)CC2(Cl)C(Cl)=C(Cl)C1(Cl)C2(Cl)Cl (stereo unspecified)" qualitative_label="no (0)"
